Task for the reader: assign each of the following binders its reported pKd.
Biological target: T1, human IL-11 (human, UniProt P20809 22-199)
T1 construct: bought from Invigate; also called hIL-11; hIL11
T1 sequence: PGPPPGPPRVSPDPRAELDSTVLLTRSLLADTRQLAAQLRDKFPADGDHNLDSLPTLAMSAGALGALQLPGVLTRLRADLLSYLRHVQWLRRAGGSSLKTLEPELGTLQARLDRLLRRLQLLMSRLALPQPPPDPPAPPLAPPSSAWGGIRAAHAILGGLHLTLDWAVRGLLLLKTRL
Assay: SPR; limit told of 12 single-site germlining mutants; antigen not given, SPR run on human and mouse IL-11
pKd: −log10 of the molar value.

Recorded results for 2 binders are shown here.
| Binder | Observed result |
| --- | --- |
| TPP-31277 (antibody, IgG4, V domains shown, hIgG4 SPLE, lambda) VH: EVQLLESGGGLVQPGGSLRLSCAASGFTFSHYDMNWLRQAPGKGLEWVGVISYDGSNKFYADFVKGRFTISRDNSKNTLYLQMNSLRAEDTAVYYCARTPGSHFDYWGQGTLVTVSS VL: QSVLTQPPSASGTPGQRVTISCSGSSSNIGSNAVNWYQQLPGTAPKLLIYYDDLLPSGVPDRFSGSKSGTSASLAISGLRSEDEADYYCSAWDDSLNGVVFGGGTKLTVL | > 7.72 |
| TPP-31294 (antibody, IgG4, V domains shown, hIgG4 SPLE, lambda) VH: EVQLLESGGGLVQPGGSLRLSCAASGFTFSHYDMNWLRQAPGKGLEWVAVISYDGSNKFYADFVKGRFTISRDNSKNTLYLQMNSLRAEDTAVYYCARTPGSHFDYWGQGTLVTVSS VL: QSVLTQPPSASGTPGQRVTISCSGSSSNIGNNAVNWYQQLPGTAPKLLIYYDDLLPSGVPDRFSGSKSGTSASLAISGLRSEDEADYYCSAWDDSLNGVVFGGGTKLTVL | > 7.72 |

Next binder, please.
## Task Any idea what its pKd is? The binder is TPP-31296 (antibody, IgG4, V domains shown, hIgG4 SPLE, lambda) VH: EVQLLESGGGLVQPGGSLRLSCAASGFTFSHYDMNWLRQAPGKGLEWVGVISYDGSNKFYADSVKGRFTISRDNSKNTLYLQMNSLRAEDTAVYYCARTPGSHFDYWGQGTLVTVSS VL: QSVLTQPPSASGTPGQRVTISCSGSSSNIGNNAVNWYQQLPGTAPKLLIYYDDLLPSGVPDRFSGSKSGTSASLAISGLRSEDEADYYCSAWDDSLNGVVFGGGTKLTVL
## Result > 7.72

Values compiled from patent US20240317847A1.
